Hey, just so you know, these numbers are from ChEMBL document CHEMBL1144999.

This listing pairs compounds with measured Ki.
study.system: GABA-A receptor; alpha-5/beta-3/gamma-2 (Homo sapiens, UniProt P18507+P28472+P31644)
Sequence (P18507 whole entry): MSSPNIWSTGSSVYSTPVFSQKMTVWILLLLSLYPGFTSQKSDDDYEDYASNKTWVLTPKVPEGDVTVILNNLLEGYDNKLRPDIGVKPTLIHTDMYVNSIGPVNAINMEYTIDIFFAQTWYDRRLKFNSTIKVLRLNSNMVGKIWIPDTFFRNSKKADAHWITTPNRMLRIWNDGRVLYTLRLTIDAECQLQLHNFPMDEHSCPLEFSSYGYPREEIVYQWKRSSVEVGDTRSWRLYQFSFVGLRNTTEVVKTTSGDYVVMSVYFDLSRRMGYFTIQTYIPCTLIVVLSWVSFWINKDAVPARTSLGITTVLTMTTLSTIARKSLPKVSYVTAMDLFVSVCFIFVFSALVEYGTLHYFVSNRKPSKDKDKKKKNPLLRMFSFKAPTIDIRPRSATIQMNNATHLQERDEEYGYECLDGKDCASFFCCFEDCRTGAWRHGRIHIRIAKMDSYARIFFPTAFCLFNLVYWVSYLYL
Sequence (P28472 whole entry): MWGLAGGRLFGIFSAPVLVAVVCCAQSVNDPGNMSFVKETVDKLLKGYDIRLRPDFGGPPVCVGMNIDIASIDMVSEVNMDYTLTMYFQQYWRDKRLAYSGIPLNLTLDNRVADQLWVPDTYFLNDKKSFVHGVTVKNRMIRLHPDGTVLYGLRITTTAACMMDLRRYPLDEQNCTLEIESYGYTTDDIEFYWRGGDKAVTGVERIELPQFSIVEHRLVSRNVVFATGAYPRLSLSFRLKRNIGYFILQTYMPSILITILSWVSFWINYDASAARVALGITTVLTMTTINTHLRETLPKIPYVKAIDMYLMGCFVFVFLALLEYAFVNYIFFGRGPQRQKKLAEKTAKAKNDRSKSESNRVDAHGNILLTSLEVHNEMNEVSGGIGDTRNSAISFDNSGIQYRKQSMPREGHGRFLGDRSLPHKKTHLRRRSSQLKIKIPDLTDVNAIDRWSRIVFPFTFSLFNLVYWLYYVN
Sequence (P31644 whole entry): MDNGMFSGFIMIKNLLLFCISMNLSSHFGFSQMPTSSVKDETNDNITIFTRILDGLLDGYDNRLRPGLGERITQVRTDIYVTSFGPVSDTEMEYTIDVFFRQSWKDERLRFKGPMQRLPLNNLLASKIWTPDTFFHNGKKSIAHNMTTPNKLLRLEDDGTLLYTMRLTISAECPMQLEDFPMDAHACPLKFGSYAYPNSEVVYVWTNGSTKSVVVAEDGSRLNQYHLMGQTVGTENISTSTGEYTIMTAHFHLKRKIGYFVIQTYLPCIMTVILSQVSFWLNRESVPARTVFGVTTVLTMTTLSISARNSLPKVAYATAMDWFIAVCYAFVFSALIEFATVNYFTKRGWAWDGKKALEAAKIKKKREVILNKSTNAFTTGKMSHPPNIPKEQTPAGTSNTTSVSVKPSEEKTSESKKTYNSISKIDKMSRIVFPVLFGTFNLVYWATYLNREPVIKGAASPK
method.summary: Binding affinity to human GABA A alpha-5-beta-3-gamma-2 receptor, using a [3H]-Ro- 15-1788 radioligand
measurement.kind: Ki

>>> measurement("CSc1sc(-c2ccc[nH]2)c2c1C(=O)CC(C)(C)C2")
"85 nM"
>>> measurement("CC1(C)CC(=O)c2c(SC(C)(C)C)sc(-c3cc[nH]n3)c2C1")
"170 nM"
>>> measurement("CSc1sc(-c2nc(C)no2)c2c1C(=O)CC(C)(C)C2")
"37 nM"
>>> measurement("CC1(C)CC(=O)c2c(Sc3nccs3)sc(-c3nccs3)c2C1")
"1.4 nM"
>>> measurement("COc1sc(-c2cc[nH]n2)c2c1C(=O)CC(C)(C)C2")
"67 nM"
>>> measurement("CC(C)Oc1sc(-c2cc[nH]n2)c2c1C(=O)CC(C)(C)C2")
"15 nM"
>>> measurement("CSc1sc(-c2cncs2)c2c1C(=O)CC(C)(C)C2")
"15 nM"
>>> measurement("CC1(C)CC(=O)c2c(Sc3cccs3)sc(-c3cc[nH]n3)c2C1")
"2.4 nM"
>>> measurement("CC(C)Nc1sc(-c2cc[nH]n2)c2c1C(=O)CC(C)(C)C2")
"3.9 nM"
>>> measurement("CSc1sc(-c2ncn(C)n2)c2c1C(=O)CC(C)(C)C2")
"19 nM"
>>> measurement("CCc1sc(-c2cc[nH]n2)c2c1C(=O)CC(C)(C)C2")
"11 nM"
>>> measurement("CC1(C)CC(=O)c2csc(-c3cc[nH]n3)c2C1")
"> 300 nM"
>>> measurement("CC1(C)CC(=O)c2c(SCCCO)sc(-c3nccs3)c2C1")
"4.7 nM"
>>> measurement("CSc1sc(-c2ccccc2)c2c1C(=O)CC(C)(C)C2")
"> 300 nM"
>>> measurement("CC1(C)CC(=O)c2c(NCCO)sc(-c3cc[nH]n3)c2C1")
"78 nM"
>>> measurement("CC1(C)CC(=O)c2c(SCCCO)sc(-c3cc[nH]n3)c2C1")
"4.7 nM"
>>> measurement("CNc1sc(-c2cc[nH]n2)c2c1C(=O)CC(C)(C)C2")
"132 nM"
>>> measurement("CCCSc1sc(-c2cc[nH]n2)c2c1C(=O)CC(C)(C)C2")
"4.6 nM"
>>> measurement("CCCCSc1sc(-c2cc[nH]n2)c2c1C(=O)CC(C)(C)C2")
"18 nM"
>>> measurement("CC1(C)CC(=O)c2c(Sc3nccs3)sc(-c3cc[nH]n3)c2C1")
"1.4 nM"

----------
study.system: GABA-A receptor; alpha-5/beta-3/gamma-2 (Homo sapiens) (UniProt P18507+P28472+P31644)
method.summary: Efficacy for GABA-A receptor alpha-5-beta-3-gamma-2 subunits expressed in Xenopus laevis oocytes by two-electrode voltage clamp recording
Format: cell-based
condition.details: Oocyte
Returns one of criterion met or criterion not met; criterion met when Efficacy is >= -30.

>>> label("CSc1sc(-c2ccncc2)c2c1C(=O)CC(C)(C)C2")
"criterion met"
>>> label("CC1(C)CC(=O)c2c(SCCO)sc(-c3nccs3)c2C1")
"criterion not met"
>>> label("CC1(C)CC(=O)c2c(SCCO)sc(-c3ccccn3)c2C1")
"criterion not met"
>>> label("CSc1sc(-c2cccnc2)c2c1C(=O)CC(C)(C)C2")
"criterion not met"
>>> label("CC(C)Nc1sc(-c2cc[nH]n2)c2c1C(=O)CC(C)(C)C2")
"criterion met"
>>> label("CC1(C)CC(=O)c2c(SCCCO)sc(-c3nccs3)c2C1")
"criterion met"
>>> label("CCc1c(C(=O)OC)ncc2[nH]c3cc(OC)c(OC)cc3c12")
"criterion not met"
>>> label("CSc1sc(-c2ccccn2)c2c1C(=O)CC(C)(C)C2")
"criterion not met"
>>> label("CSc1sc(-c2cc[nH]n2)c2c1C(=O)CC(C)(C)C2")
"criterion met"
>>> label("CC1(C)CC(=O)c2c(Sc3nccs3)sc(-c3nccs3)c2C1")
"criterion met"
>>> label("CC1(C)CC(=O)c2c(Sc3nccs3)sc(-c3cc[nH]n3)c2C1")
"criterion met"
>>> label("CSc1sc(-c2nccs2)c2c1C(=O)CC(C)(C)C2")
"criterion met"
